All figures here come from PubChem BioAssay (NCI).

Tested on: HT29 colon
Experiment: NCI tumour cell line growth inhibition, 48 h
quantity-measured: TGI (µM)
Answer format: numeric, µM implied, no suffix.

smiles-text | test-target | TGI, µM
O=C1c2cc(Br)ccc2-c2c1c1ccc([N+](=O)[O-])cc1c(=O)n2CCCCl | HT29 colon | 12.1
CN1CCN(Cc2ccc(NC(=O)c3cncc(C#Cc4cnc(N)c5ccc(F)cc45)c3)cc2C(F)(F)F)CC1 | HT29 colon | 4.14
CC1(C)C=CC[C@]2(C)[C@H]3CC[C@@H]4[C@H]5[C@H](C(=O)/C=C/c6cccnc6)CC[C@]5(CO)CC[C@@]4(C)[C@]3(C)CC[C@@H]12 | HT29 colon | 2.68

Measured TGI of "CCN(CC)CCNc1c(OC)cc(C)c2sc3ccccc3c(=O)c12" : 6.42
